Target: SARS-CoV-2 wild-type spike (S) protein (SARS-CoV-2, WT (MN908947), UniProt P0DTC2)
Assay: cell-based or functional assay
We begin with a simple list: items and their reported pseudovirus IC50(μg/ml), Wild-type.
measurement-type: pseudovirus IC50(μg/ml), Wild-type

- XGv265 (antibody, V domains shown) VH: QITLKESGPTLVKPTQTLTLTCNFSGFSLNTYGVGVGWIRQPPGKALEWLALIYWDGDERYGPFFKNKVTIAKDTSKNQVVLTMTNMDPVDTATYYCARHLIPTIFDYWGQGTLVTVSS VL: QSALTQPASVSGSPGQSITISCTGTSSDVGGSNYVSWYQHHPDRAPKLLIYEVTNRPSGVSNRFSGSKSANTASLTISGLQAEDEADYYCSSYTTTSTHILFGGGTKLTV: 0.0105 µg/mL
- XGv347 (antibody, V domains shown) VH: QMQLVQSGPEVKKPGTSVKVSCKASGFTFTDVSSLQWVRQARGQRLEWIGWTVVGTGNTNYAPRFQERVTITTDKSTSTAYMELSSLRSEDTAVYYCAAPFCSETSCSDGFDLWGQGTKVTVSS VL: EIVLTQSPGTLSLSPGDRATLSCRASQSVRISYLAWYQQKPGQAPRLLISGSSSRATGIPDRFSASGSGTDFALTISRLEPEDFAVYYCQQYDNSPWTFGQGTKVEVK: 0.0685 µg/mL
- XGv282 (antibody, V domains shown) VH: QVQLVQSGAEVKKPGSSVKVSCKASGDTFSSYTFSWVRQAPGQGLEWMGRSIPIVGKAIYAQEFQGRVTISADRSTTTVYMELSSLRSDDTAVYYCARDQSGFDFFYYDHWGQGTLVAVSS VL: QSVLTQPPSASGTPGQRVTISCSGSGSNIGSNTINWYQQLPGTAPKVLIYRNNERPSGVPDRFSGSKSGTSASLTISGLQSEDEAYYHCAAWDDSLNGPVFGGGTKLTVL: 0.007 µg/mL

Numbers sourced from paper PMC8967717.
